Molecular target: the molecule itself
Test: negative-stain electron microscopy

PROTEIN: TorsinA H140N (human, residues 51-332) (domain or fragment) GQKRSLSREALQKDLDDNLFGQHLAKKIILNAVFGFINNPKPKKPLTLSLHGWTGTGKNFVSKIIAENIYEGGLNSDYVHLFVATLHFPNASNITLYKDQLQLWIRGNVSACARSIFIFDEMDKMHAGLIDAIKPFLDYYDLVDGVSYQKAMFIFLSNAGAERITDVALDFWRSGKQREDIKLKDIEHALSVSVFNNKNSGFWHSSLIDRNLIDYFVPFLPLEYKHLKMCIRVEMQSRGYEIDEDIVSRVAEEMTFFPKEERVFSDKGCKTVFTKLDYYYDD
binding result: binds

PROTEIN: TorsinA K174E (human, residues 51-332) (domain or fragment) GQKRSLSREALQKDLDDNLFGQHLAKKIILNAVFGFINNPKPKKPLTLSLHGWTGTGKNFVSKIIAENIYEGGLNSDYVHLFVATLHFPHASNITLYKDQLQLWIRGNVSACARSIFIFDEMDEMHAGLIDAIKPFLDYYDLVDGVSYQKAMFIFLSNAGAERITDVALDFWRSGKQREDIKLKDIEHALSVSVFNNKNSGFWHSSLIDRNLIDYFVPFLPLEYKHLKMCIRVEMQSRGYEIDEDIVSRVAEEMTFFPKEERVFSDKGCKTVFTKLDYYYDD
binding result: binds

PROTEIN: TorsinA K174A (human, residues 51-332) (domain or fragment) GQKRSLSREALQKDLDDNLFGQHLAKKIILNAVFGFINNPKPKKPLTLSLHGWTGTGKNFVSKIIAENIYEGGLNSDYVHLFVATLHFPHASNITLYKDQLQLWIRGNVSACARSIFIFDEMDAMHAGLIDAIKPFLDYYDLVDGVSYQKAMFIFLSNAGAERITDVALDFWRSGKQREDIKLKDIEHALSVSVFNNKNSGFWHSSLIDRNLIDYFVPFLPLEYKHLKMCIRVEMQSRGYEIDEDIVSRVAEEMTFFPKEERVFSDKGCKTVFTKLDYYYDD
binding result: binds
